# MEASURED ON: UniProt P21453
# ASSAY EXPLANATION: Inhibition of cAMP production (HTRF cAMP HiRange), S1P1 CHO-K1 cells
# Format: cell-based
# EXPERIMENTAL SETUP: inhibition of cAMP production, S1P1; read-out: hS1P1 CAMP pEC50 (converted)
# Sequence (P21453 whole entry): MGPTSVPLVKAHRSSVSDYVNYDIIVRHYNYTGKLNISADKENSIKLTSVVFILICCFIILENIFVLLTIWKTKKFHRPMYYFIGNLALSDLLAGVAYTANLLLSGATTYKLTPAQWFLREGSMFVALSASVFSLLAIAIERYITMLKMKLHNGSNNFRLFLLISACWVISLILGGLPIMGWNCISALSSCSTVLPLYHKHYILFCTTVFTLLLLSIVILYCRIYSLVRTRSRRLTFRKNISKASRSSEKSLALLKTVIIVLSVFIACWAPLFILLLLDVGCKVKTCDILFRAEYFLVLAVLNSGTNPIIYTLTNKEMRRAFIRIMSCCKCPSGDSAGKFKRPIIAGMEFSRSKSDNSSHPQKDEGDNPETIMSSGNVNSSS
# EC50 values compiled below

CCC1(CC)CC(=O)c2cc(-c3nc(-c4cnccc4C(F)(F)F)no3)ccc2O1: < 0.316 µM

Give the reported EC50 for this compound. `COc1ccccc1-c1cnc(-c2ccc3c(c2)nnn3C(C)C)nc1`
< 0.316 µM

Give the reported EC50 for this compound. `Cc1nc2cc(-c3nc(-c4ccc5c(c4)nnn5C(C)C)no3)ccc2[nH]1`
< 0.316 µM

Give the reported EC50 for this compound. `COc1cc(NC(C)=O)ccc1-c1noc(-c2ccc3nonc3c2)n1`
> 0.316 µM

Give the reported EC50 for this compound. `CC(C)Nc1ccc(-c2nc(-c3ccc4sc(N)nc4c3)no2)cc1C#N`
< 0.316 µM

---

# MEASURED ON: human sphingosine-1-phosphate receptor 3 (S1P3) (Homo sapiens)
# Sequence (Q99500 whole entry): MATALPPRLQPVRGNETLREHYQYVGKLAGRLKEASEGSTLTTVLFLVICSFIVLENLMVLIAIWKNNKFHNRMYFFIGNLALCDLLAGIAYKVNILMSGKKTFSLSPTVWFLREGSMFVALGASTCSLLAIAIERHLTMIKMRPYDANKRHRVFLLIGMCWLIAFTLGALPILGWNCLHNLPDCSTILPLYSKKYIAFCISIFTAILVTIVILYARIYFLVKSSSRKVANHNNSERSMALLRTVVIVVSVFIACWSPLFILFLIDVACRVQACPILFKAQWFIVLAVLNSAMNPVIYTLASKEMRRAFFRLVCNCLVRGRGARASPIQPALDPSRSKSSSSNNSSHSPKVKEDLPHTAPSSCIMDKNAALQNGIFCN
# ASSAY EXPLANATION: Selectivity: inhibition of cAMP production (HTRF), S1P3 CHO-K1 cells
# Type: cell-based
# EXPERIMENTAL SETUP: inhibition of cAMP production; read-out: hS1P3 cAMP pEC50 (converted)
MEASURED ATTRIBUTE: EC50

COc1ccccc1-c1nc(-c2ccc3c(c2)nnn3C(C)C)no1: > 10 µM
COc1ccccc1-c1nnc(-c2ccc3c(c2)oc(=O)n3C)o1: > 10 µM
N#Cc1cc(-c2nc(-c3ccc4oc(=O)[nH]c4c3)no2)ccc1NCC1CC1: < 10 µM
C=CCNc1ccc(-c2nc(-c3cn[nH]c3)no2)cc1C#N: < 10 µM
CCC1(CC)CC(=O)c2cc(-c3nc(-c4ccccc4Cl)no3)ccc2O1: < 10 µM
CC(C)n1nnc2cc(-c3nc(-c4cccc5c4OCCC5)no3)ccc21: < 10 µM
CC(C)n1nnc2cc(-c3nc(-c4cccc5c4OCO5)no3)ccc21: > 10 µM
CCC1(CC)CC(=O)c2cc(-c3nc(-c4ccc5[nH]ncc5c4)no3)ccc2O1: > 10 µM

Give the reported EC50 for this compound. `CCC1(CC)CC(=O)c2cc(-c3nc(-c4ccc5[nH]c(=O)oc5c4)no3)ccc2O1`
> 10 µM

Give the reported EC50 for this compound. `COc1cnccc1-c1nc(-c2ccc3c(ccn3C(C)C)c2)no1`
< 10 µM

---

# MEASURED ON: human sphingosine-1-phosphate receptor 1 (S1P1) (Homo sapiens, UniProt P21453)
# ASSAY EXPLANATION: β-Arrestin2 recruitment assay (PathHunter), S1P1 CHO-K1 cells
# Assay type: cell-based
# EXPERIMENTAL SETUP: CHO-K1; efficacy normalized to maximum efficacy of fingolimod; read-out: hS1P1 B-arrestin2 SPAN
# Sequence (P21453 whole entry): as the sequence (P21453 whole entry) above
# Sequence (P32121 whole entry partner): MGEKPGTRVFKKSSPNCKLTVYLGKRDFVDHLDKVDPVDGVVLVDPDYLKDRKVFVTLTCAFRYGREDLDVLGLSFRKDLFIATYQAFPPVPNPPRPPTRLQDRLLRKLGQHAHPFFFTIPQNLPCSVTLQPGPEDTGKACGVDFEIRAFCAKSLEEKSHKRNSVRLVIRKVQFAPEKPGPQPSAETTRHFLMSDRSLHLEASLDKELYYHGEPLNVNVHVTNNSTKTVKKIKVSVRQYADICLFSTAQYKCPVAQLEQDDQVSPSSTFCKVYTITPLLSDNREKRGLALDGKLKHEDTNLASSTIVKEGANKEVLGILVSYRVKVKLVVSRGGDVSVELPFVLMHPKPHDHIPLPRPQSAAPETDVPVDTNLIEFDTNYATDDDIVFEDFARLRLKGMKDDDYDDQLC
MEASURED ATTRIBUTE: Emax

Some entries whose results are on file:
CC(C)n1ccc2cc(-c3noc(-c4cccnc4)n3)ccc21: > 75%
CCC1(CC)CC(=O)c2cc(-c3nc(-c4ccnc(C(=O)NC)c4)no3)ccc2O1: > 75%
N#Cc1cc(-c2nc(-c3ccc4c(c3)CCC(=O)N4)no2)ccc1NCC(F)(F)F: > 75%
Cn1cnc2ccc(-c3nnc(-c4ccc(NCC(F)F)c(C#N)c4)o3)cc21: > 75%
CCc1ccccc1-c1nc(-c2ccc3c(c2)nnn3CC(C)(C)CO)no1: > 75%

Give the reported Emax for this compound. `Cc1cccc2nc(-c3ccc4c(c3)nnn4CC(C)C)oc12`
> 75%

Give the reported Emax for this compound. `CC(C)(O)Cn1nnc2cc(-c3nc(-c4ccc5nonc5c4)no3)ccc21`
< 75%

Give the reported Emax for this compound. `N#Cc1cc(-c2nnc(-c3ccc4c(c3)CCC(=O)N4)o2)ccc1NCC1CC1`
< 75%

Give the reported Emax for this compound. `COc1ncccc1-c1noc(-c2ccc3c(c2)nnn3C(C)C)n1`
> 75%

Give the reported Emax for this compound. `CCC1(CC)CC(=O)c2cc(-c3nc(-c4cncc(S(N)(=O)=O)c4)no3)ccc2O1`
> 75%

Give the reported Emax for this compound. `CCC1(CC)CC(=O)c2cc(-c3nc(-c4ccc(NC(C)=O)cc4OC)no3)ccc2O1`
> 75%

Give the reported Emax for this compound. `CC(C)n1ccc2cc(-c3noc(-c4ccccn4)n3)ccc21`
> 75%

Give the reported Emax for this compound. `CCC1(CC)CC(=O)c2cc(-c3nc(-c4ccncn4)no3)ccc2O1`
> 75%

---

# MEASURED ON: human sphingosine-1-phosphate receptor 1 (S1P1) (Homo sapiens)
# ASSAY EXPLANATION: Inhibition of cAMP production (HTRF cAMP HiRange), S1P1 CHO-K1 cells
# Type: cell-based
# EXPERIMENTAL SETUP: CHO-K1; inhibition of cAMP production; efficacy normalized to maximum efficacy of fingolimod; read-out: hS1P1 CAMP SPAN
MEASURED ATTRIBUTE: Emax

Give the reported Emax for this compound. COc1cccc(-c2noc(-c3ccc4c(c3)nnn4C(C)C)n2)c1 [Compound 228]
< 75%

Give the reported Emax for this compound. CCC1(CC)CC(=O)c2cc(-c3nc(-c4ccccc4OC)ns3)ccc2O1 [Compound 257]
> 75%

Give the reported Emax for this compound. Cc1ccccc1-c1noc(-c2ccc3scnc3c2)n1 [Compound 362]
< 75%

Give the reported Emax for this compound. CC(C)n1nnc2cc(-c3nc(-c4cccnc4)no3)ccc21 [Compound 165]
> 75%

Give the reported Emax for this compound. CC(C)n1nnc2cc(-c3nsc(-c4ccccc4O)n3)ccc21 [Compound 112]
> 75%

---

# MEASURED ON: human sphingosine-1-phosphate receptor 1 (S1P1) (Homo sapiens, UniProt P21453)
# ASSAY EXPLANATION: β-Arrestin2 recruitment assay (PathHunter), S1P1 CHO-K1 cells
# Format: cell-based
# EXPERIMENTAL SETUP: β-arrestin2 recruitment, S1P1; read-out: hS1P1 B-arrestin2 pEC50 (converted)
# EC50 values compiled below

Some entries whose results are on file:
CCC1(CC)CC(=O)c2cc(-c3nc(-c4cnccc4C)no3)ccc2O1 [Compound 549]: < 10 µM
O=C1CC(CO)(CO)Oc2ccc(-c3nc(-c4ccncc4)no3)cc21 [Compound 482]: > 10 µM
CC(C)Nc1ccc(-c2nnc(-c3ccc4c(c3)ncn4C)o2)cc1C#N [Compound 572]: > 10 µM

Kindly consider the entry below.
Give the reported EC50 for this compound. CCC1(CC)CC(=O)c2cc(-c3nc(-c4ccc5[nH]c(=O)[nH]c5c4)no3)ccc2O1 [Compound 539]
< 10 µM

---

# EC50 values compiled below
# MEASURED ON: human sphingosine-1-phosphate receptor 1 (S1P1) (Homo sapiens)
# ASSAY EXPLANATION: Inhibition of cAMP production (HTRF cAMP HiRange), S1P1 CHO-K1 cells
# Type: cell-based
# EXPERIMENTAL SETUP: inhibition of cAMP production, S1P1; read-out: hS1P1 CAMP pEC50 (converted)

COc1cccc(-c2coc(-c3ccc4c(c3)nnn4C(C)C)n2)c1: > 316 nM
CC(C)Nc1ccc(-c2nc(-c3ccc4oc(=O)[nH]c4c3)no2)cc1C#N: < 316 nM
CC(C)n1ccc2cc(-c3noc(-c4ccccn4)n3)ccc21: > 316 nM
COc1ccccc1-c1nc(-c2ccc3c(ccn3C(C)C)c2)no1: < 316 nM
Cc1ccc2nc(-c3ccc4c(c3)nnn4CC(C)C)oc2c1: > 316 nM

Give the reported EC50 for this compound. `CC(C)n1ccc2cc(-c3noc(-c4ccncc4)n3)ccc21`
< 316 nM

Give the reported EC50 for this compound. `Cn1ccnc1-c1noc(-c2ccc3c(c2)nnn3CC(C)(C)O)n1`
> 316 nM

Give the reported EC50 for this compound. CCC1CC(=O)c2ccc(-c3nc(-c4cccnc4)no3)cc2O1 (stereo not drawn)
> 316 nM

Give the reported EC50 for this compound. `Cc1cnccc1-c1noc(-c2ccc3c(c2)nnn3CC(C)(C)O)n1`
< 316 nM

Give the reported EC50 for this compound. `CC(C)n1ccc2cc(-c3nc(-c4ccccc4C(F)(F)F)cs3)cnc21`
> 316 nM

---

# MEASURED ON: UniProtKB P21453
# ASSAY EXPLANATION: Inhibition of cAMP production (HTRF cAMP HiRange), S1P1 CHO-K1 cells
# Format: cell-based
# EXPERIMENTAL SETUP: inhibition of cAMP production, S1P1; read-out: hS1P1 CAMP pEC50 (converted)
MEASURED ATTRIBUTE: EC50

Some entries whose results are on file:
CC(C)Cn1nnc2cc(-c3nc4ccncc4o3)ccc21: > 316 nM
CCC1(CC)CC(=O)c2cc(-c3nc(-c4sccc4OC)no3)ccc2O1: < 316 nM
Cc1ccncc1-c1noc(-c2ccc3c(c2)nnn3C2CCC2)n1: < 316 nM
CCC1(CC)CC(=O)c2cc(-c3nc(-c4ccnc(NS(C)(=O)=O)c4)no3)ccc2O1: < 316 nM
CCc1ccccc1-c1nc(-c2ccc3c(c2)nnn3CC(C)(C)CO)no1: > 316 nM
CCC1(CC)C/C(=N\O)c2cc(-c3nc(-c4cccnc4)no3)ccc2O1: > 316 nM
CN1C(=O)CCc2cc(-c3nc(-c4cccnc4)no3)ccc21: > 316 nM
CC(C)n1ccc2cc(-c3nc(-c4ccccc4F)cs3)ccc21: > 316 nM
Cc1ccccc1-c1nc(-c2ccc3c(c2)nnn3C(C)(C)CO)no1: < 316 nM
CCC1(CC)CC(=O)c2cc(-c3nc(-c4ccc5c(c4)CC(=O)N5)no3)ccc2O1: < 316 nM

# return EC50 for `CC(C)Nc1ccc(-c2nnc(-c3ccc4oc(=O)[nH]c4c3)o2)cc1C#N` , test system: UniProtKB P21453
< 316 nM

# return EC50 for `N#Cc1cc(-c2nnc(-c3ccc4c(c3)CCC(=O)N4)o2)ccc1NCC1CC1` , test system: UniProtKB P21453
< 316 nM

# return EC50 for `CC(C)Nc1ccc(-c2ncc(-c3ccc4c(c3)nnn4C(C)C)cn2)cc1C#N` , test system: UniProtKB P21453
< 316 nM

# return EC50 for `Cc1cn(C)nc1-c1noc(-c2ccc3c(c2)nnn3C(C)C)n1` , test system: UniProtKB P21453
< 316 nM

# return EC50 for `CCC1(CC)CC(=O)c2cc(-c3nc(-c4cccs4)no3)ccc2O1` , test system: UniProtKB P21453
< 316 nM

# return EC50 for `Cc1nccnc1-c1nc(-c2ccc3c(c2)nnn3C(C)(C)CO)no1` , test system: UniProtKB P21453
> 316 nM

# return EC50 for `CC(C)Nc1ccc(-c2nnc(-c3ccc4c(c3)ncn4CCO)o2)cc1C#N` , test system: UniProtKB P21453
> 316 nM

# return EC50 for `N#Cc1cc(-c2nc(-c3ccc4c(c3)NC(=O)CC4)no2)ccc1NCC1CC1` , test system: UniProtKB P21453
< 316 nM

# return EC50 for CCC1CC(=O)c2ccc(-c3nc(-c4ccncc4)no3)cc2O1 (centres unmarked) , test system: UniProtKB P21453
> 316 nM

# return EC50 for `C=CCNc1ccc(-c2ccc(-c3ccc4c(c3)nnn4C(C)C)cc2)cc1C#N` , test system: UniProtKB P21453
> 316 nM

# return EC50 for `Cc1ccc2nc(-c3ccc4c(c3)nnn4C(C)C)oc2c1` , test system: UniProtKB P21453
< 316 nM

# return EC50 for `CC(C)n1ccc2cc(-c3noc(-c4cccnc4)n3)ccc21` , test system: UniProtKB P21453
> 316 nM

# return EC50 for `CCC1(CC)CC(=O)c2cc(-c3ncc(-c4ccncc4)cn3)ccc2O1` , test system: UniProtKB P21453
< 316 nM
